Each entry below carries its reported pIC50.
study-target: human Nav1.8 (Homo sapiens (Human), UniProt Q9Y5Y9)
Sequence (Q9Y5Y9 whole entry): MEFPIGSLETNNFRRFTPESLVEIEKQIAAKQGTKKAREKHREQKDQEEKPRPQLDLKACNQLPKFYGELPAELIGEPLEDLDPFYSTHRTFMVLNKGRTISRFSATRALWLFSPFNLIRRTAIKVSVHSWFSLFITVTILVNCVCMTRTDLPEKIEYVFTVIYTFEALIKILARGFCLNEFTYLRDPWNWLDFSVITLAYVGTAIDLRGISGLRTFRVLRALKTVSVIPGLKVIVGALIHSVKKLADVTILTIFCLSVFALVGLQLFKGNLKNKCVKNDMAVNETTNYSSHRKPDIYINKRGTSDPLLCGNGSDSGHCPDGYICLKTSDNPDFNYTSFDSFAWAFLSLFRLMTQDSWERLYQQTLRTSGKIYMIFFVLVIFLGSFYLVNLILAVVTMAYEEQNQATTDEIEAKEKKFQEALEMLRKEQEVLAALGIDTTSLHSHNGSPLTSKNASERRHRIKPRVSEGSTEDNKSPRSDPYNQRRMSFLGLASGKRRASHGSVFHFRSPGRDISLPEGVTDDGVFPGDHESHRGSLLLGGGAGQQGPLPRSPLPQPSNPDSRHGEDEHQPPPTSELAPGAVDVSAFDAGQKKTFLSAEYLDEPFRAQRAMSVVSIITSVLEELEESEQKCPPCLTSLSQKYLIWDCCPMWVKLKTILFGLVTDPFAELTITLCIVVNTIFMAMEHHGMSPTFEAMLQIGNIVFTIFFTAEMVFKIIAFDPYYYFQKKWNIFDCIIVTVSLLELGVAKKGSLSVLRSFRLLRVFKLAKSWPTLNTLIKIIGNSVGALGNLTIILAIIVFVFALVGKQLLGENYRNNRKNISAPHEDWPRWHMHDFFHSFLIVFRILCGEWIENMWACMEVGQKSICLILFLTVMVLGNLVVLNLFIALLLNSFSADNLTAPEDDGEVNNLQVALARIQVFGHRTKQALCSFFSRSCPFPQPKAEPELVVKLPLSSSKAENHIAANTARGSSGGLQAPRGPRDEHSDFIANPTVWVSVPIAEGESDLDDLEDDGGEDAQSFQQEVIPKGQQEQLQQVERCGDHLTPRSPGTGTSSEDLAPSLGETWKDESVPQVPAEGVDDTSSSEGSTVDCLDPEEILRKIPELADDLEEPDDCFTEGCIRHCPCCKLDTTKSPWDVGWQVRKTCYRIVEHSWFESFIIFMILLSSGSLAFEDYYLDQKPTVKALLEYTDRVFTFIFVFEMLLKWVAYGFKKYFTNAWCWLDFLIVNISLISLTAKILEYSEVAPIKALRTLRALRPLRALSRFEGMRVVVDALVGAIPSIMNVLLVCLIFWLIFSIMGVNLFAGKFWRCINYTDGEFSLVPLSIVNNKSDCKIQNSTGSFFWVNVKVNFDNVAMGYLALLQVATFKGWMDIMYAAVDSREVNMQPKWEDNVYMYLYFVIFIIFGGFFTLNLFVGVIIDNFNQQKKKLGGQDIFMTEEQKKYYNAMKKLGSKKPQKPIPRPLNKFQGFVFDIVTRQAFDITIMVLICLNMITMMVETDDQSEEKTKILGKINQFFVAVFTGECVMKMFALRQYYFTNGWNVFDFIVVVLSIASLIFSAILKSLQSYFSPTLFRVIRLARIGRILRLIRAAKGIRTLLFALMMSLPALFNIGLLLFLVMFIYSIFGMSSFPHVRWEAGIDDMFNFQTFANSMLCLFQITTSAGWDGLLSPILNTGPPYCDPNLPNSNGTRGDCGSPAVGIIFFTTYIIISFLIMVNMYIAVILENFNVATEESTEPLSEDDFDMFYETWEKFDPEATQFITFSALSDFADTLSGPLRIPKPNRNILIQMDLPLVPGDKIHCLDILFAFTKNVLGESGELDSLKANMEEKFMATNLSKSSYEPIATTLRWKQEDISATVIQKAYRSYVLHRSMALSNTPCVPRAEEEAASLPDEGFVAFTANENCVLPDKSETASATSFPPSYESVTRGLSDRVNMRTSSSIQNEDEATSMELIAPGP
method-summary: E-VIPR optical membrane potential assay with electrical stimulation
Format: cell-based
condition-details: HEK cells expressing human Nav1.8
Answer as the number alone; pIC50 is minus log10 of concentration in mol/L.

// worked examples, pIC50 included
| smiles-string | study-target | number |
| --- | --- | --- |
| COc1ccc(Oc2cc(Cl)c(Cl)cc2C(=O)Nc2ccc(C(=O)O)cc2)c(OC)c1 | human Nav1.8 (Homo sapiens (Human), UniProt Q9Y5Y9) | 7.57 |
| COc1cc(F)ccc1Oc1cc(Cl)c(Cl)cc1C(=O)Nc1ccc(C(=O)O)nc1 | human Nav1.8 (Homo sapiens (Human), UniProt Q9Y5Y9) | 8.05 |
| COc1ccc(Oc2cc(Cl)c(Cl)cc2C(=O)Nc2ccc(C(=O)O)nc2)c(Cl)c1 | human Nav1.8 (Homo sapiens (Human), UniProt Q9Y5Y9) | 7.19 |

// below: pIC50 requested for another molecule
-- ask Enter measured pIC50, system human Nav1.8 (Homo sapiens (Human), UniProt Q9Y5Y9), for the molecule shown: O=C(O)c1ccc(NC(=O)c2cc(Cl)c(Cl)cc2Oc2ccccc2OC(F)F)cc1
-- reply 7.18

* * *

study-target: UniProt:Q9Y5Y9
method-summary: E-VIPR optical membrane potential assay with electrical stimulation
condition-details: HEK cells expressing human Nav1.8
Listed here: items and their measured IC50.
A number alone suffices; assume nM.

Reference set, count: 3
| smiles-string | unit-tag | IC50 |
| --- | --- | --- |
| COc1ccc(Oc2cc(Cl)c(Cl)cc2C(=O)Nc2ccc(C(=O)O)nc2)c(OC)c1 | nM | 15 |
| O=C(O)c1ccc(NC(=O)c2cc(C(F)(F)F)ccc2Oc2ccc(F)cc2)cn1 | nM | 285 |
| COc1ccc(Oc2cc(C(F)(F)F)cc(C(F)(F)F)c2C(=O)Nc2ccc(C(=O)O)nc2)cc1 | nM | 66 |

-- ask Entry COc1ccc(Oc2cc(Cl)c(Cl)cc2C(=O)Nc2ccc(C(=O)O)cc2)cc1F needs its IC50 filled in; supply it.
-- reply 78

* * *

study-target: human Nav1.8 (Homo sapiens (Human), UniProt Q9Y5Y9)
method-summary: E-VIPR optical membrane potential assay with electrical stimulation
condition-details: HEK cells expressing human Nav1.8
Experimental: Assays for Detecting and Measuring NaV Inhibition Properties of Compounds E-VIPR Optical Membrane Potential Assay Method with Electrical Stimulation Sodium channels are voltage-dependent proteins that can be activated by inducing membrane voltage changes by applying electric fields. […] 7) Read Plate on E-VIPR. […] Data was analyzed and reported as normalized ratios of emission intensities measured in the 460 nm and 580 nm channels. […]
measured-property: IC50 (nM)
Write it as a number; the unit nM goes unstated.

A selection of reference data follows.
| smiles-string | number |
| --- | --- |
| COc1cc(Cl)ccc1Oc1ccc(C(F)(F)F)cc1C(=O)Nc1ccc(C(=O)O)nc1 | 68 |
| Cc1cc(F)ccc1Oc1cc(Cl)c(Cl)cc1C(=O)Nc1ccc(C(=O)O)nc1 | 11 |
| COc1cc(F)ccc1Oc1cc(C(F)(F)C(F)(F)F)ccc1C(=O)Nc1ccc(C(=O)O)nc1 | 35 |

In the following, a different molecule is considered.
-- ask Using the record for O=C(O)c1ccc(NC(=O)c2ccccc2Oc2ccc(F)cc2)cn1 , state its measured IC50.
-- reply 4350
